- TEST PARAMETERS: pH 2.7
Marks after values point to notes of the source that are not given here.
EXPERIMENTAL READOUT: LogP

Some entries whose results are on file:
CCCC(=O)Nc1cccc(CON=C(c2ccccc2)c2noc(=O)n2C)n1; 3.13 [a]
Cn1c(/C(=N\OCc2cccc(NC(=O)OC(C)(C)C)n2)c2ccccc2F)noc1=O; 3.92 [a]
Cc1cccc(/C(=N/OCc2cccc(N)n2)c2noc(=O)n2C)c1; 1.45 [a]
CCCCOC(=O)Nc1cccc(CO/N=C(/c2ccccc2F)c2noc(=O)n2C)n1; 3.92 [a]

Please give LogP, item by item, for the list that follows.
1. CC(C)COC(=O)Nc1cccc(CO/N=C(/c2ccccc2)c2noc(=O)n2C)n1
2. CCn1c(C(=NOCc2cccc(NC(=O)CC(C)C)n2)c2ccccc2)noc1=O
3. CCCCC(=O)Nc1cccc(CO/N=C(/c2ccccc2)c2noc(=O)n2C)n1
4. CCn1c(C(=NOCc2cccc(NC(=O)OCCc3ccccc3)n2)c2ccccc2)noc1=O

Ans:
["4.01 [a]", "3.7 [a]", "3.51 [a]", "4.41 [a]"]
